molecular target: IDH1 R132H (Homo sapiens, UniProt O75874, R132H); test: In vitro assay for IDH1 R132H inhibitors (NADPH/aKG, resazurin detection); assay type: biochemical; details: Table 4B; 0.2 μg/ml IDH1 R132H, 50 minutes at room temperature; read-out: IC50, IDH1 R132H Inhibition
Sequence (O75874 whole entry R132H): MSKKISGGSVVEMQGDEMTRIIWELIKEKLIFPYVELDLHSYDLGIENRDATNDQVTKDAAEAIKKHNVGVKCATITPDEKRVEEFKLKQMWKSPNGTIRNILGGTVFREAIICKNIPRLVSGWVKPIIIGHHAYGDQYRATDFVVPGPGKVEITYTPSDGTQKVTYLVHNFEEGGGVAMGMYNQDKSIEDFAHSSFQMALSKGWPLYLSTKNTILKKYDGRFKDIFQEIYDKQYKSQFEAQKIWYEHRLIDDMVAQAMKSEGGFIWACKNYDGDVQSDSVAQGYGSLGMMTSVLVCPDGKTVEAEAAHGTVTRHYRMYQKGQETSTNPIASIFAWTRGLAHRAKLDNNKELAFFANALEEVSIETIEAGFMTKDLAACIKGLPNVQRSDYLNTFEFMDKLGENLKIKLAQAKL
Listing of recorded IC50 by entry.

Examples from the recorded data:
compound	measured property	result
Cc1ccccc1C(C(=O)NC1CCC(F)(F)CC1)N(C(=O)Cn1ccnc1C(F)(F)F)c1cccc(F)c1 (stereo not drawn)	IC50	0.1 to 1 µM
Cc1ccccc1C(C(=O)NC1CCCCC1)N(C(=O)CCNC(=O)OC(C)(C)C)c1cccc(F)c1 (stereo not drawn)	IC50	0.1 to 1 µM

Incoming: Tell me the measured IC50 of Cc1ccccc1C(C(=O)NC1CCCCC1)N(C(=O)CN(C)c1ccccc1)c1cccc(F)c1 (stereo not drawn) , please.
Outgoing: ≤ 0.1 µM

Incoming: Tell me the measured IC50 of O=C(NC1CCCCC1)C(c1cccc(Cl)c1)N(C(=O)Cc1cccs1)c1cccc(F)c1 (stereo not drawn) , please.
Outgoing: 0.1 to 1 µM

Incoming: Tell me the measured IC50 of Cc1ccccc1[C@@H](C(=O)NC1CCCCC1)N(C(=O)[C@H]1CCCCN1S(C)(=O)=O)c1cccc(F)c1 , please.
Outgoing: 0.1 to 1 µM

Incoming: Tell me the measured IC50 of CNC(=O)N1CCC[C@@H]1C(=O)N(c1cccc(F)c1)[C@H](C(=O)NC1CCCCC1)c1ccccc1C , please.
Outgoing: 0.1 to 1 µM

Incoming: Tell me the measured IC50 of O=C(NC1CCCCC1)C(c1ccccc1F)N(C(=O)Cn1cnc2ccccc21)c1cccc(F)c1 (stereo not drawn) , please.
Outgoing: ≤ 0.1 µM

Incoming: Tell me the measured IC50 of Cc1ccccc1C(C(=O)NC1CCCCC1)N(C(=O)CO[C@H]1CCOC1)c1cccc(F)c1 (stereo partly drawn) , please.
Outgoing: 0.1 to 1 µM

###

Biological target: IDH1 R132H (Homo sapiens, UniProt O75874, R132H)
Assay: In vitro assay for IDH1 R132H inhibitors (NADPH/aKG, resazurin detection)
Assay type: biochemical
Conditions: Table 4B; 0.2 μg/ml IDH1 R132H, 50 minutes at room temperature; read-out: IC50, IDH1 R132H Inhibition
Description: Assays were conducted in a volume of 76 μl assay buffer (150 mM NaCl, 10 mM MgCl2, 20 mM Tris pH 7.5, 0.03% bovine serum albumin) as follows in a standard 384-well plate: To 25 ul of substrate mix (8 uM NADPH, 2 mM aKG), 1 μl of test compound was added in DMSO. […] The conversion of resazurin to resorufin was detected by fluorescent spectroscopy at Ex544 Em590 c/o 590. […]
measured property: IC50

Examples from the recorded data:
compound	IC50
Cc1ccccc1C(C(=O)NC1CCCCC1)N(C(=O)CNc1ccc(F)nc1)c1cccc(F)c1 (stereo not shown)	≤ 100 nM
Cc1ccccc1C(C(=O)NC1CCCCC1)N(C(=O)CN1Cc2cccnc2C1)c1cccc(F)c1 (stereo not shown)	100 to 1000 nM
Cc1ccccc1C(C(=O)NCC1CCCCC1)N(C(=O)Cc1cccs1)c1cccc(F)c1 (stereo not shown)	100 to 1000 nM
Cc1ccccc1C(C(=O)NC1CCCCC1)N(C(=O)Cc1c[nH]c2ccncc12)c1cccc(F)c1 (stereo not shown)	100 to 1000 nM
O=C(NC1CCCCC1)C(c1cccc(F)c1)N(C(=O)Cc1cccs1)c1cccc(F)c1 (stereo not shown)	100 to 1000 nM

# context switch: different compound, same IC50
Incoming: Tell me the measured IC50 of Cc1ccccc1C(C(=O)NC1CCCCC1)N(C(=O)Cc1cn(C)c2ccccc12)c1cccc(F)c1 (stereo not shown) , please.
Outgoing: 100 to 1000 nM
